Just for reference, patent US20220249679A1 is where these values come from.

Target: T1, Human CD138 His (human, UniProt P18827 23-254)
T1 construct: also called hCD138
T1 sequence: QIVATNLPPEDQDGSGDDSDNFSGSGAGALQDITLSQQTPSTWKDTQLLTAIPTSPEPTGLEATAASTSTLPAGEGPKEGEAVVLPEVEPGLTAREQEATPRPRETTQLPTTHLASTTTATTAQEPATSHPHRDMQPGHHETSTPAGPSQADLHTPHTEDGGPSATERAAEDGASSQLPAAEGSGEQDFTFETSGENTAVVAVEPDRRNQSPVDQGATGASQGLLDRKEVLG
Assay: SPR (BioRad Proteon), CD138 His immobilized, bivalent analyte fit
measured_quantity: koff (s⁻¹)
Supply the numeric figure in s⁻¹, leaving out any unit text.

Worked set:
binder	endpoint_unit	koff
F13P18D8 (antibody, V domains shown, Murine IgG purified from hybridoma supernatant) VH: EVQLLESGGGLVQPEGSLKLSCAASGFAFNTYAMNWVRQAPGKGLEWLARIRSKSNNYATYYADSVKDRFTISRDDSQGMLYLQMNNLKTEDTAMYYCVTDYYYVYFDVWGAGTTVTVSS VL: NIVMTQSPKSMSMSVGERVTLSCKASENVGTYVSWYQQKSDQSPKLLIYGASNRYTGVPDRFTGSGSATDFTLTITSVQSEDLADYHCGQSSRYPLTFGAGTKLELKR	s⁻¹	0.000523
F12P7G11 (antibody, V domains shown, Murine IgG purified from hybridoma supernatant) VH: QVQLQQSGAELARPGASVKLSCKASGYTFSSHWMQWVKQRPGQGLEWIGAIYPGDGDTRFTQKFKGKATLTADKSSNTAYMQLSSLASEDSAVYYCARGIYYDRSRAMDYWGQGTSVTVSS VL: QIVLSQSPAILSASPGEKVTMTCRASSSVNYMHWYQQKPGSSPKHWIYATSYLASGVPARFSGSGSGTSYSLTISRVEAEDAATYYCQQWSSDPLTFGAGTKLELKR	s⁻¹	0.033
F11AP11E5 (antibody, V domains shown, Murine IgG purified from hybridoma supernatant) VH: QVQLQQSGAELVKPGASVKLSCKASGYTFTNYYMYWVKQRPGQGLEWIGEINPGNGGTNFNEKFKNKATLTVDKSSSTAYMQLSSLTSEDSAVYYCTTRFAYWGQGTLVIVSA VL: DVVMTQTPLSLSVTIGQPASISCKSGQSLLYSNGKTYLTWLQQRPGQAPKLLMYQVSKLDPGIPDRFSGSGSETDFTLKISRVEAEDLGVYYCLQNTYYPHTFGAGTKLELKR	s⁻¹	0.0117

Sure, the documented koff for F13P14D3 (antibody, V domains shown, Murine IgG purified from hybridoma supernatant) VH: EVQLVESGGGLVQPKGSLKLSCATSGFTFNTYAMNWVRQAPGKGLEWVARIRSKSNNYATYYVDSVKDRFTISRDDSQSTVHLQMNNLKTEDTAIYYCVTDYGHVYFDVWGAGTTVTVSS VL: NIVMTQSPKSMSMSVGQRVTLSCKASENVGSYVSWYQQKPEQSPKLLIYGASNRNTGVPDRFTGSGSATDFTLTISSVQAEDLADYHCGQSSRYPLTFGGGTKLELKR is 0.00104
